Measured IC50, listed per entry.
- tested-system: Lactoperoxidase (Bos taurus)
measurement-name: IC50 (µM)

INSERT INTO measurements (molecule, measurement_name, unit_symbol, assay_result) VALUES
  ('O=C(NO)c1ccc(Cc2ccccc2)cc1O', 'IC50', 'µM', 0.04),
  ('O=C(NO)c1c[nH]c(NCc2cc(C(F)(F)F)cc(C(F)(F)F)c2)nc1=O', 'IC50', 'µM', 6.3);

---

Observed IC50 values for Thyroid peroxidase (Homo sapiens, UniProt P07202) are listed in what follows.
measurement-name: IC50 (nM)

INSERT INTO results (compound, assay_result) VALUES
  ('O=C(NO)c1c[nH]c(NCc2cc(C(F)(F)F)cc(C(F)(F)F)c2)nc1=O', 1590),
  ('O=C(NO)c1ccc(Cc2ccccc2)cc1O', 63),
  ('O=C(NO)c1c[nH]c(NCc2ccccc2)nc1=O', 1590),
  ('O=C(NO)c1ccccc1O [Salicylic hydroxamic acid]', 2000);

---

This listing pairs compounds with measured IC50.
Sequence of the target: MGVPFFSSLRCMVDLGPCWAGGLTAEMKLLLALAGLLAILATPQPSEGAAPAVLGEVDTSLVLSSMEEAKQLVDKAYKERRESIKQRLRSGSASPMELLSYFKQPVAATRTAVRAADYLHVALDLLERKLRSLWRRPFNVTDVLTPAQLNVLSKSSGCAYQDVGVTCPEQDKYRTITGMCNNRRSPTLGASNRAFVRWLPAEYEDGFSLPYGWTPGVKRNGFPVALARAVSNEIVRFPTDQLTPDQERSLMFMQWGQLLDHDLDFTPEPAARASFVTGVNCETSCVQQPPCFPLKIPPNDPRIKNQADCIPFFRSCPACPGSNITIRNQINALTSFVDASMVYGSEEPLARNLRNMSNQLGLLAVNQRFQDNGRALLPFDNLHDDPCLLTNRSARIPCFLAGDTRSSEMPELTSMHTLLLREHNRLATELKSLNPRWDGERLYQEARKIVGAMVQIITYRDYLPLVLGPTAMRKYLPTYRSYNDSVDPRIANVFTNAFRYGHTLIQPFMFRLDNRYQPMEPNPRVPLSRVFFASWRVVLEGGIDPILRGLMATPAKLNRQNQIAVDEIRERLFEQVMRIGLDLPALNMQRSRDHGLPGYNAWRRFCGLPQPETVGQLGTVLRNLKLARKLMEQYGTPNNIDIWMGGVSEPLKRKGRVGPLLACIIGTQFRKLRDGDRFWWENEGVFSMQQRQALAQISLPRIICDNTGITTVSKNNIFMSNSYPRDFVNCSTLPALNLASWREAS
measurement-name: IC50 (nM)

INSERT INTO measurements (compound, measurement_name, assay_result) VALUES
  ('O=C(NO)c1ccc(Cc2ccccc2)cc1O', 'IC50', 25.1),
  ('O=C(NO)c1ccccc1O [Salicylic hydroxamic acid]', 'IC50', 25000),
  ('O=C(NO)c1c[nH]c(NCc2ccccc2)nc1=O', 'IC50', 790);
